Entries and their inhibition at 0.04 µM values follow.
target of assay: CDK4 (Homo sapiens, UniProt P11802+Q16531)
assay remarks: CDK4 percentage degradation in Calu-1 cells (Table 6)
Type: cell-based
Parameters: Cells that express cyclin D1-3 and CDK4/6 proteins were treated with heterobifunctional compounds; endogenous in cells; host or cells: Calu-1
details: 40 nM, 16 hours
Sequence (P11802 2-303 limits assumed): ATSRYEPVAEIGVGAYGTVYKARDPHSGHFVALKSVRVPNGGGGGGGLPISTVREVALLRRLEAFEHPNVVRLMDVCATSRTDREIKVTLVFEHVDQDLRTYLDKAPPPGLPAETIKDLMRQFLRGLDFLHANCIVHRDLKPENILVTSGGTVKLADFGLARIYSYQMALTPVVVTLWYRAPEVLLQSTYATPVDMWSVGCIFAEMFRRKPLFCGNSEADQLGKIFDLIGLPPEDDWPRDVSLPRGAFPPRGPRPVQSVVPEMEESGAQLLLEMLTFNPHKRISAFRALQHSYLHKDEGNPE
Sequence (P24385 whole entry partner): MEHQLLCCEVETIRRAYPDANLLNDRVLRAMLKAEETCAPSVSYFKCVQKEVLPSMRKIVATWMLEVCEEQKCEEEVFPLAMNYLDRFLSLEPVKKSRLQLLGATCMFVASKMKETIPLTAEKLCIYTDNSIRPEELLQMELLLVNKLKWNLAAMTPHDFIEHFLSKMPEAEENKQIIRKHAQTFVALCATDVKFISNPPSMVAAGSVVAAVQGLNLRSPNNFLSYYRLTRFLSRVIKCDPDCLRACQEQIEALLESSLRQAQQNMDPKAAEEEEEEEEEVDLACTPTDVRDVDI
Sequence (Q16531 2-1140 limits assumed): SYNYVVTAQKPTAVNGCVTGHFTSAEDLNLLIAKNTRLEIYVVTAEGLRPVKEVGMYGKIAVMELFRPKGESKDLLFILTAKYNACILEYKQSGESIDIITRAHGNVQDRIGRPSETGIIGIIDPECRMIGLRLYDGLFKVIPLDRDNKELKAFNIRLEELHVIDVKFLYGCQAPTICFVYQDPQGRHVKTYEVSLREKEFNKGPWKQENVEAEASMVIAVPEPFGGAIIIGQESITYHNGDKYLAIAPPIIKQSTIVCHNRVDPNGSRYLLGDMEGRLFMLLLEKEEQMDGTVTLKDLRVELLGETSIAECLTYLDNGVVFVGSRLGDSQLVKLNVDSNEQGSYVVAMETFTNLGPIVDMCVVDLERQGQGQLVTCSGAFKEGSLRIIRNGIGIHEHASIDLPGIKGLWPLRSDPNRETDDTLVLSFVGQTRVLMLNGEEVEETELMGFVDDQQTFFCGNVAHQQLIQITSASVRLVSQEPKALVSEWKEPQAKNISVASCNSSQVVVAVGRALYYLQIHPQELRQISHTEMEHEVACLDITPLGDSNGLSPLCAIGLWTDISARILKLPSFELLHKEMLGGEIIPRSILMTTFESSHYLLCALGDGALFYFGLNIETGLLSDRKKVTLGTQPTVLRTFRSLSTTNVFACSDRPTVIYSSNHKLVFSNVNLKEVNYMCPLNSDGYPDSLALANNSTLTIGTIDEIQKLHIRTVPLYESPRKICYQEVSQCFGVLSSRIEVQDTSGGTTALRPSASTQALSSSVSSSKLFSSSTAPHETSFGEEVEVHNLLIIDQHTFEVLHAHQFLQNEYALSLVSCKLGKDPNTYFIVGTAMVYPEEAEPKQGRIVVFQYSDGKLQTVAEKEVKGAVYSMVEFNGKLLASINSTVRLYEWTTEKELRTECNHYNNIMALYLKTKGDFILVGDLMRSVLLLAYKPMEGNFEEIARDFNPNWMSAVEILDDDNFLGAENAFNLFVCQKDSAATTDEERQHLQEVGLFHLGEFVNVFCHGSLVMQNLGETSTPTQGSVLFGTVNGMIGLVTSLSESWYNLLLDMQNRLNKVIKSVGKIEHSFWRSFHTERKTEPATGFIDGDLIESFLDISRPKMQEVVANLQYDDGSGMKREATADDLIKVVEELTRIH

compound: [2H]C([2H])([2H])Nc1ccc(C(=O)Nc2cccc(C3CC3)n2)c(NC2CC3(CC(NC(=O)CN4CCN(c5ccc(Nc6ncc7c(C)c(C(C)=O)c(=O)n(C8CCCC8)c7n6)nc5)CC4)C3)C2)n1 (stereo not shown) [CPD-163]
endpoint value: 50 to 80%
--
compound: [2H]C([2H])([2H])Nc1ccc(C(=O)Nc2cc(C)n(C)n2)c(NC2CN(C(=O)C(F)(F)CN3CCN(c4ccc(Nc5ncc6c(C)c(C(C)=O)c(=O)n(C7CCCC7)c6n5)nc4)CC3)C2)n1 [CPD-233]
endpoint value: < 30%
--
compound: CNc1ccc(C(=O)Nc2cc(C3CC3)n(C)n2)c(NC2CC3(CC(NC(=O)CN4CCN(c5ccc(Nc6ncc7c(C)c(C(C)=O)c(=O)n(C8CCCC8)c7n6)nc5)CC4)C3)C2)n1 (stereo not shown) [CPD-98]
endpoint value: 30 to 50%
--
compound: CNc1ccc(C(=O)Nc2ccc(C)c(C)n2)c(NC2CC3(CC(NC(=O)CN4CCN(c5ccc(Nc6ncc7c(C)c(C(C)=O)c(=O)n(C8CCCC8)c7n6)nc5)CC4)C3)C2)n1 (stereo not shown) [CPD-182]
endpoint value: 30 to 50%
--
compound: CNc1ccc(C(=O)Nc2ccc(N(C)C)nn2)c(NC2CN(C(=O)CN3CCN(c4ccc(Nc5ncc6c(C)c(C(C)=O)c(=O)n(C7CCCC7)c6n5)nc4)CC3)C2)n1 [CPD-187]
endpoint value: < 30%
--
compound: CNc1ccc(C(=O)NC2CC(N(C)C)C2)c(NCCCCCNC(=O)CN2CCN(c3ccc(Nc4ncc5c(C)c(C(C)=O)c(=O)n(C6CCCC6)c5n4)nc3)CC2)n1 (stereo not shown) [CPD-64]
endpoint value: < 30%
--
compound: CNc1ccc(C(=O)Nc2ccn(C)c2)c(NC2CC3(CC(NC(=O)CN4CCN(c5ccc(Nc6ncc7c(C)c(C(C)=O)c(=O)n(C8CCCC8)c7n6)nc5)CC4)C3)C2)n1 (stereo not shown) [CPD-183]
endpoint value: 50 to 80%
--
compound: CNc1ccc(C(=O)Nc2ccc(F)c(C3CC3)n2)c(NC2CC3(CC(NC(=O)CN4CCN(c5ccc(Nc6ncc7c(C)c(C(C)=O)c(=O)n(C8CCCC8)c7n6)nc5)CC4)C3)C2)n1 (stereo not shown) [CPD-128]
endpoint value: 50 to 80%
--
compound: CNc1ccc(C(=O)Nc2cccc(C3CC3)n2)c(NC2CC(CNC(=O)CN3CCN(c4ccc(Nc5ncc6c(C)c(C(C)=O)c(=O)n(C7CCCC7)c6n5)nc4)CC3)C2)n1 (stereo not shown) [CPD-162]
endpoint value: 50 to 80%

Incoming: Given the entry CNc1ccc(C(=O)Nc2ccc(C)c(OC)n2)c(NCCCCCNC(=O)CN2CCN(c3ccc(Nc4ncc5c(C)c(C(C)=O)c(=O)n(C6CCCC6)c5n4)nc3)CC2)n1 [CPD-116] , report its measured inhibition at 0.04 µM.
Outgoing: 30 to 50%

----------
target of assay: CDK4 (Homo sapiens, UniProt P11802+Q16531)
assay remarks: HiBiT detection of HiBiT-tagged CDK4 protein level in MCF7 cells, 16 hours (Table 8)
Type: cell-based
Parameters: expressed in transfected cells; host or cells: MCF7
details: 10 nM, MCF7 cells stably expressing HiBiT tagged target proteins, read-out: % CDK4 Relative Level (10 nM)
Sequence (P11802 whole entry): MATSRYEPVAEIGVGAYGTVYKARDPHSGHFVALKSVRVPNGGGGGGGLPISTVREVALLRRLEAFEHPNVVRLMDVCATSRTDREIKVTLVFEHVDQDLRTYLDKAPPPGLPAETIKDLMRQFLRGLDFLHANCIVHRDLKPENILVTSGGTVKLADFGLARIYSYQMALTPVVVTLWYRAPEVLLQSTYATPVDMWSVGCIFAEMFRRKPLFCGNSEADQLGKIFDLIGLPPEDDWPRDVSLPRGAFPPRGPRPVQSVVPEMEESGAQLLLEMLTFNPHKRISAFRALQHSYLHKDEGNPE
Sequence (P24385 whole entry partner): as the sequence (P24385 whole entry partner) above
Sequence (Q16531 2-1140 limits assumed): as the sequence (Q16531 2-1140 limits assumed) above
property name: activity at 0.01 µM

Some solved entries appear below for comparison.
compound: CCc1ccc(C(=O)Nc2ccc(N(C)C)nn2)c(N[C@H]2CC[C@H](C(=O)N3CCC(N4CCN(C5CCC(Nc6ncc7c(C)c(C(C)=O)c(=O)n(C8CCCC8)c7n6)CC5)CC4)C3)CC2)n1 (stereo partly drawn)
activity at 0.01 µM: > 85%
--
compound: CC(C)Nc1ccc(C(=O)Nc2ccc(N(C)C)nn2)c(NC2CC3(C2)CN(C(=O)CN2CCN(Cc4ccc(Nc5ncc6cc(C(=O)N(C)C)n(C7CCCC7)c6n5)nc4)CC2)C3)n1
activity at 0.01 µM: > 85%

Kindly review the next compound as well.
Incoming: # returns recorded activity at 0.01 µM (system: CDK4 (Homo sapiens, UniProt P11802+Q16531)) for CNc1ccc(C(=O)Nc2ccc(N(C)C)nn2)c(NCCCCCCCNC(=O)CN2CCN(c3ccc(Nc4ncc(F)c(-c5cc(F)c6nc(C)n(C(C)C)c6c5)n4)nc3)CC2)n1
Outgoing: > 85%

----------
assay remarks: Mouse pharmacokinetics (FIG. 5)
Format: in vivo, male Swiss Albino mice
details: plasma, po, mice, 1 mg/kg i.v. and 10 mg/kg p.o., over 12 hours
property name: bioavailability at 12 h

Incoming: Given the entry CNc1ccc(C(=O)Nc2ccc(N(C)C)nn2)c(NC2CC3(CC(NC(=O)CN4CCN(c5ccc(Nc6ncc7c(C)c(C(C)=O)c(=O)n(C8CCCC8)c7n6)nc5)CC4)C3)C2)n1 (stereo not shown) , report its measured bioavailability at 12 h.
Outgoing: ~15%

----------
target of assay: CDK4 (Homo sapiens, UniProt P11802+Q16531)
assay remarks: CDK4 percentage degradation in Calu-1 cells (Table 6)
Assay type: cell-based
Parameters: Cells that express cyclin D1-3 and CDK4/6 proteins were treated with heterobifunctional compounds; endogenous in cells; host or cells: Calu-1
details: 40 nM, 16 hours
Procedure: Calu-(cells were treated with heterobifunctional compounds at 40 nM or 200 nM for 16 hours A: protein percentage degradation […]; B: protein percentage degradation <80%, and ≥50%; C: protein percentage degradation <50%, and ≥30%; D; protein percentage degradation […]; -, data not available. Calu-1, T47D, MCF7, HCC1428 and other cells were cultured at 37° C. with 5% CO2 in RPMI 1640 or DMEM medium supplemented with 10% fetal bovine serum. […]
property name: inhibition at 0.04 µM

Some solved entries appear below for comparison.
molecule: CNc1ccc(C(=O)Nc2ccc(N(C)C)nn2)c(NC2CC(NC(=O)C(C)(C)N3CCN(c4ccc(Nc5ncc6c(C)c(C(C)=O)c(=O)n(C7CCCC7)c6n5)nc4)CC3)C2)n1 (centres unmarked) [CPD-243]
endpoint value: 50 to 80%
//
molecule: CC(=O)c1c(C)c2cnc(Nc3ccc(N4CCN(C(=O)NCCC5CC(Nc6cc(Cl)ccc6C(=O)Nc6ccc(C)c(C7CC7)n6)C5)CC4)cn3)nc2n(C2CCCC2)c1=O (centres unmarked) [CPD-256]
endpoint value: < 30%
//
molecule: CC(=O)c1c(C)c2cnc(Nc3ccc(N4CCN(CC(=O)NC5CC6(C5)CC(Nc5nc(NC(C)C)ccc5C(=O)Nc5cc(C)on5)C6)CC4)cn3)nc2n(C2CCCC2)c1=O (centres unmarked) [CPD-199]
endpoint value: 50 to 80%
//
molecule: CNc1ccc(C(=O)Nc2nc(C3CC3)ccc2F)c(NC2CC3(CC(NC(=O)CN4CCN(c5ccc(Nc6ncc7c(C)c(C(C)=O)c(=O)n(C8CCCC8)c7n6)nc5)CC4)C3)C2)n1 (centres unmarked) [CPD-114]
endpoint value: < 30%
//
molecule: CNc1ccc(C(=O)Nc2ccc3c(n2)CCC3)c(NC2CC3(CC(NC(=O)CN4CCN(c5ccc(Nc6ncc7c(C)c(C(C)=O)c(=O)n(C8CCCC8)c7n6)nc5)CC4)C3)C2)n1 (centres unmarked) [CPD-69]
endpoint value: 30 to 50%
//
molecule: CNc1ccc(C(=O)Nc2cc(C)n(C)n2)c(NC2CC(NC(=O)CN3CCN(c4ccc(Nc5ncc6c(C)c(C(C)=O)c(=O)n(C7CCCC7)c6n5)nc4)CC3)C2)n1 (centres unmarked) [CPD-197]
endpoint value: < 30%
//
molecule: [2H]C([2H])([2H])Nc1ccc(C(=O)Nc2ccc(N(C)C)nn2)c(NCCCCCNC(=O)CN2CCN(c3ccc(Nc4ncc5c(C)c(C(C)=O)c(=O)n(C6CCCC6)c5n4)nc3)CC2)n1 [CPD-66]
endpoint value: 50 to 80%
//
molecule: CC(=O)c1c(C)c2cnc(Nc3ccc(N4CCN(CC(=O)NC5CC6(C5)CC(Nc5cc(Cl)ccc5C(=O)Nc5cc(C)on5)C6)CC4)cn3)nc2n(C2CCCC2)c1=O (centres unmarked) [CPD-259]
endpoint value: < 30%
//
molecule: CNc1ccc(C(=O)Nc2cc(C)n(C)n2)c(NC2CCN(C(=O)CN3CCN(c4ccc(Nc5ncc6c(C)c(C(C)=O)c(=O)n(C7CCCC7)c6n5)nc4)CC3)CC2)n1 [CPD-228]
endpoint value: < 30%
//
molecule: CC(=O)c1c(C)c2cnc(Nc3ccc(N4CCN(CC(=O)NC5CC6(C5)CC(Nc5nc(C7CC7)ccc5C(=O)Nc5cccc(C7CC7)n5)C6)CC4)cn3)nc2n(C2CCCC2)c1=O (centres unmarked) [CPD-138]
endpoint value: < 30%

Incoming: Given the entry CNc1ccc(C(=O)Nc2ccc(N(C)C)nn2)c(Nc2cnn(CCNC(=O)CN3CCN(c4ccc(Nc5ncc6c(C)c(C(C)=O)c(=O)n(C7CCCC7)c6n5)nc4)CC3)n2)n1 [CPD-25] , report its measured inhibition at 0.04 µM.
Outgoing: < 30%
